Method: Cytotoxicity against MDCK cells incubated for 48 hrs by MTT assay
Type: toxicity, cell-based, Canis lupus familiaris
Experimental Parameters: dog

{"Compound": "CN(C)C(=O)[C@@H]1Cc2cc(O)c(O)cc2[C@H](Cc2ccc(O)c(O)c2)N1C(=O)c1ccccc1Cl", "Reading Unit": "µM", "Relation Sign": "=", "CC50 at 48 h": 137}
{"Compound": "COC(=O)[C@@H]1Cc2cc(O)c(O)cc2[C@H](Cc2ccc(O)c(O)c2)N1C(=O)c1cccc(Cl)c1", "Reading Unit": "µM", "Relation Sign": "=", "CC50 at 48 h": 61.1}
{"Compound": "COC(=O)[C@@H]1Cc2cc(O)c(O)cc2[C@H](Cc2ccc(O)c(O)c2)N1C(=O)c1ccc(Br)cc1", "Reading Unit": "µM", "Relation Sign": ">", "CC50 at 48 h": 101}
{"Compound": "COC(=O)[C@@H]1Cc2cc(O)c(O)cc2[C@H](Cc2ccc(O)c(O)c2)N1C(=O)c1ccc(Cl)cc1", "Reading Unit": "µM", "Relation Sign": "=", "CC50 at 48 h": 87.4}
{"Compound": "COC(=O)[C@@H]1Cc2cc(O)c(O)cc2[C@H](Cc2ccc(O)c(O)c2)N1C(=O)c1c(Cl)cccc1Cl", "Reading Unit": "µM", "Relation Sign": "=", "CC50 at 48 h": 81.6}
{"Compound": "CCC(CC)[C@H](NC(C)=O)[C@@H]1[C@H](O)[C@@H](C(=O)O)C[C@H]1NC(=N)N [PERAMIVIR ANHYDROUS]", "Reading Unit": "µM", "Relation Sign": ">", "CC50 at 48 h": 101}
{"Compound": "COC(=O)[C@@H]1Cc2cc(O)c(O)cc2[C@H](Cc2ccc(O)c(O)c2)N1C(=O)c1cccc(C(F)(F)F)c1", "Reading Unit": "µM", "Relation Sign": ">", "CC50 at 48 h": 101}
{"Compound": "COC(=O)[C@@H]1Cc2cc(O)c(O)cc2[C@H](Cc2ccc(O)c(O)c2)N1C(=O)C1CCCCC1", "Reading Unit": "µM", "Relation Sign": "=", "CC50 at 48 h": 64.5}

###

Method: in vitro
Experimental Parameters: dog, MDCK cells
Property: selectivity ratio; scope: individual compounds
Measurement Name: selectivity ratio

{"Input Smiles": "COC(=O)[C@@H]1Cc2cc(O)c(O)cc2[C@H](Cc2ccc(O)c(O)c2)N1C(=O)c1cccc(Br)c1", "Measurement": "> 26.4"}
{"Input Smiles": "COC(=O)[C@@H]1Cc2cc(O)c(O)cc2[C@H](Cc2ccc(O)c(O)c2)N1C(=O)c1ccccc1Br", "Measurement": "> 29.5"}
{"Input Smiles": "COC(=O)[C@@H]1Cc2cc(O)c(O)cc2[C@H](Cc2ccc(O)c(O)c2)N1C(=O)c1cccc([N+](=O)[O-])c1", "Measurement": "> 5.3"}

###

Let's look at some compounds and their measured selectivity ratio.
Method: in vitro
Experimental Parameters: dog, MDCK cells
Measurement Name: selectivity ratio

{"Compound": "O=C1c2c(O)c(=O)ccn2N([C@@H]2c3ccccc3SCc3c2ccc(F)c3F)[C@@H]2COCCN12", "Measurement": "> 11700"}
{"Compound": "COC(=O)[C@@H]1Cc2cc(O)c(O)cc2[C@H](Cc2ccc(O)c(O)c2)N1C(=O)c1ccc(Cl)cc1Cl", "Measurement": "> 21.2"}
{"Compound": "COC(=O)[C@@H]1Cc2cc(O)c(O)cc2[C@H](Cc2ccc(O)c(O)c2)N1C(=O)c1ccccc1[N+](=O)[O-]", "Measurement": "> 9.2"}
{"Compound": "CN1CCc2cc(O)c(O)cc2C1Cc1ccc(O)c(O)c1 (racemic)", "Measurement": "> 5.4"}
{"Compound": "COC(=O)[C@@H]1Cc2cc(O)c(O)cc2[C@H](Cc2ccc(O)c(O)c2)N1C(=O)c1ccccc1C(F)(F)F", "Measurement": "> 11.1"}
{"Compound": "COC(=O)[C@@H]1Cc2cc(O)c(O)cc2[C@H](Cc2ccc(O)c(O)c2)N1C(=O)c1ccc(F)cc1", "Measurement": "> 33.6"}
{"Compound": "COC(=O)[C@@H]1Cc2cc(O)c(O)cc2[C@H](Cc2ccc(O)c(O)c2)N1C(=O)c1ccc(Br)cc1", "Measurement": "> 25.5"}
{"Compound": "CCC(CC)[C@H](NC(C)=O)[C@@H]1[C@H](O)[C@@H](C(=O)O)C[C@H]1NC(=N)N [PERAMIVIR ANHYDROUS]", "Measurement": "> 19.2"}
